# methodDescription: yeast display, Sf9 membrane polyspecificity reagent, FACS + sequencing; frameworks hold sequencing errors
measuredParameter: polyreactivity (PSR sort gate)

A selection of reference data follows.
QVQVVETGGGLVQAGGSLRLSCAPSGITFVTYAMGWYRQAPGKERELVAAISRSGGRTYYADSVNVRFTISRDNAKNTVYLQMNSLKPEDTAVYYCAAERKNKYDYWGQGTQVTVSS :: high polyreactivity
QVQLVESGGGLVQAGGSLRLSCAASGNTFSDYAMGWYRQAPGKERELVAAISSSGVRTYYADSVKVRFTISRDNAKNTVYLHMISLNPEDTAVYYCAADNYYYRFVAAMDYWGQGTQVTVSS :: high polyreactivity
QVQLVESGGGLVQAGGSLRLSCAASGFTFTRNAMGWSRPAPGKERELVAAISKRGGTTYYADSVKGRFTISRDNAKNTVYLQMNSLKPEDTAVYYCAKDGGITGGYWGQGTQVSVSS :: high polyreactivity
QVQLVESGGGLVQAGGSLRLSCAASGRTIQWYAMGWYRQAPGKERELVAGISFSGGSTYYADSVKGRFTISRDNAKNTVYLQMNSLKPEDTAVYYCNAQGYTTYRGDYWGQGTQVTVSS :: high polyreactivity
QVQLVESGGGLVQAGGSLRLSCAASGITSSIYAMGWDRQAPGKERELVAVSTTSGGSTYYADSVKGRYTISRDNAKNTVYLQMNSLKPEDTAVYYCAADSYFYLDLLEDYWGQGTKVTVSS :: low polyreactivity
QVQVVESGGGLVQAGGSLRLSCAASGLTFQVYAKGWYRQAPGKERELVARISSSGSSTYADSVKGRFTISRDNAKNTVYLQMNSLKPEDTAVYYCNAGKRQRGEYWGQGTQVTVSS :: high polyreactivity
QVQLVESGGGLVQAGGSLRLSCAPSGLTFKDYTMGWYRQAPGKERELVAAISKSGGRTYYADSVKGRFTISRDNAKNTVYLQMNSLKPEDTAVYYCNADSRTYRYYWSYGYWGQGTQVTVSS :: high polyreactivity
QVQLVESGGGLVQAGGSLRLSCAASGSIFYVYAMGWYRQAPGKERELVAAITARVTSTYYADSVKGRFTISRDNAKNTVYLQMNSLKPEDTAVYSCAARTSYKTGYRKYDYWGQATQVTVSS :: low polyreactivity

The sequence listed as QVQLVESGGGLVQAGGSLSLICAASGRFSNAMGWYIQAPGKERELVAAITLSGTSTYYADSVKGRFTISRDNAKNTVYLQMNSLKTEDTAVYYCAAGSGYGVTWVYSPYTGVDYWGQGTQVTVSS has a reported polyreactivity (PSR sort gate) of low polyreactivity

The sequence listed as QVQLVESGGGLVQAGGSLRLSCAASGSTFTTNVMGWYRQAPGKERELVAAISWSSGSTYYADSVKGRFTISRDNAKNTVYLQMNSLKPEDTAVYYCAAKSTYVVSKMNYWGQGTQVTVSS has a reported polyreactivity (PSR sort gate) of high polyreactivity

The sequence listed as QVQLVESGGGLVQAGGSLRLSCAASGLTFRYYAMGRNRPARGKEREVVAVITTSTGTTYYADSVKGRFTISRDNAKNTVYLQMNSLKPEDTPVYYCATDTGAYLYSMYDYWGQVTQVTVSS has a reported polyreactivity (PSR sort gate) of low polyreactivity

---

# methodDescription: yeast display, Sf9 membrane polyspecificity reagent, FACS + sequencing; frameworks hold sequencing errors
measuredParameter: polyreactivity (PSR sort gate)

A selection of reference data follows.
QVQLVESGGGLVQAGGSLRLSCAASGRTFALNAMGWYRQAPGKERELVAAISWSSGRTYYADSVKGRFTISRDNAKNKVYLQMNSLKPEDTAVYYCAALVAHKGDYWGQGTQVTVSS :: high polyreactivity
QVQLVESGGGLVQAGGSLRLSCAASGSTFTINAKGWYRQAPGKERELVAAISWSGGTTYYADSVKGRFTISRDNAKNTVYLQMTSLKPEDTAVYYCAARSYYGYDYWGQGTQVTVSS :: high polyreactivity
QVQLVESGGGLVQAGGSLRLSCAASGSIFPYNAMGWYRQAPGKERQLVARISWSGGSTYYADSVKGRFTISRDNAKNTVYLQMNSLKPEDTAVYYCAATIIFDAQYRFYYWGQGTQVTVSS :: low polyreactivity
QVQLVESGGGLVQAGGILRLTCAASGSIFGTYAMGWYRTPPGKERELVSAITRRSGRTYYADSVKGRFTISRDNAKNTVNLQMNCLKQEDTAVYYCAKRPVIDDDYWGQGTQETVSS :: high polyreactivity
QVHLVESAGGLVQAGGSLRLSCAASGITFSDNAMGWYRPAPGKETEVVAAISWGGGSTYYADSVKGRFTISRDNAKNTVYLQMNSLKPEDTAFYYCNAGGYLISDVDRVGYWGQGTQVTVSS :: low polyreactivity

The sequence listed as QVQLVESGGGLDQAGGSLRLSCAASGSTFYAYTMGWYRQAPGKERELVARISGRGGSTYYADSVKGRFTISRDNAKNTVFLQMYSLKPEDTAVYFCASRVYGSYRGIQYGYWGQGTQETVSS has a reported polyreactivity (PSR sort gate) of high polyreactivity
